Assay: Human HepG2 cell viability assay in 384 well format
Assay type: toxicity, cell-based
Parameters: dose 125 nL, time 70.5 hour; concentration not given beside the values
Conditions: HepG2 cells, read-out: Inhibition

compound	cytotoxicity at 70.5 h, %
COC(=O)c1ccc(N2CCN(C(=O)c3cccnc3)C(C)C2)cc1 (configuration not stated)	-4.39
Cc1cc(CNC(=O)NCC(O)c2cccc(C(F)(F)F)c2)no1 (configuration not stated)	1.91
Cc1ccccc1-c1noc(CN2CCC(c3ccn[nH]3)CC2)n1	30.9
Cc1csc(N2CCN(CC(=O)N3CCCC3)CC2C)n1 (configuration not stated)	1.56
Cc1ncsc1C(=O)N(C)Cc1ccncc1	28.4
CCn1nc(C)cc1C(=O)NCc1cccnc1N(C)C	2.09
OC1CCN(Cc2c(-c3ccco3)[nH]c3ncccc23)CC1	-5.94
Cc1cccc(OCCNC(=O)C(C)S(=O)(=O)c2ccccn2)c1 (configuration not stated)	-2.85
CC(=O)N1Cc2ccccc2OC2(CCN(C(=O)C3CCOC3)CC2)C1 (configuration not stated)	-1.13
Cc1ccc(C2(O)CCN(Cc3nc(C)n4ccccc34)CC2)nc1	-9.79
COC(=O)c1cc(NC(=O)NCC2CCS(=O)(=O)C2)ccc1Cl (configuration not stated)	-0.58
CCn1cc(CNCCNc2ncc(Cl)cc2Cl)cn1	10.4
